Tested on: PC-3 prostate
testProtocol: NCI tumour cell line growth inhibition, 48 h; in the data active = GI50 below about 0.43 µM; inactive = the rest
Classes used: true = active, false = inactive

molecule	cat
CCC(C)CN=C(N)c1ccc(N2CCN(c3ccc(C(N)=NCC(C)CC)cc3)CC2)cc1 (stereo not given)	false
COc1ccc2c(c1OC)C(=O)OC2C1c2c(c(N)c3c(c2OC)OCO3)CCN1C (stereo not given)	false
COc1cc2c(cc1OCCCCCN1CCN(CCCCCOc3cc4c(cc3OC)C(=O)C3CCC[C@H]3C=N4)CC1)N=C[C@@H]1CCCC1C2=O (stereo not given in full)	false
COC(=O)c1ccc(C2SC(C)C(=O)N2NC(=O)C(O)c2ccccc2)cc1 (stereo not given)	false
CCOc1ccccc1C(=O)/C=C/c1cc2ccccc2[nH]c1=O	true

Attribution: PubChem BioAssay (NCI)
